Some sequences, each annotated with its measured sensor-assay potency score (higher = more potent).
Target: ATHL1
Test: pooled miR-30 sensor sort-seq; sequence = guide strand; further: reference of the scale not given here
Details: shRNA

# annotated cases, reported sensor-assay potency score (higher = more potent) shown
chain-sequence | result
TAAATCTCCAGATTTTTCCTGC | 0.146
TCGAAATAGCTGCAGGTCCTGG | -1.24
TTGGTGTACACAGAGTTGTTGA | -0.594
TTGATCTTGTCAGCCACCGCCA | -0.876
TCCACAGTGAGTGACTCGGTGG | -1.15

The value of sensor-assay potency score (higher = more potent) measured for the sequence TGGAACATCAGGATACTCGGGA turned out to be -0.126

The value of sensor-assay potency score (higher = more potent) measured for the sequence TACCTTGATCTTGTCAGCCACC turned out to be -0.985

====

Target: GPX1
Assay: pooled miR-30 sensor sort-seq; sequence = guide strand
Conditions: shRNA
Quick rule: sensor-assay potency score (higher = more potent) of at least -0.3 means class 1, below that means class 0.

Would you please look over these solved cases?
chain-sequence | target-of-assay | category
ATTCAGAATCTCTTCGTTCTTG | GPX1 | class 1
TAGGTTTAGAGGAAACACCCTC | GPX1 | class 0
TTTTCTATGAGTCACCGGGATT | GPX1 | class 0
ATTCTCGATAAGTAGTACCTTG | GPX1 | class 0

Exam item: decide whether the reported sensor-assay potency score (higher = more potent) for ACATCGTTGCGACACACCGGAG is at least -0.3.
class 0

Exam item: decide whether the reported sensor-assay potency score (higher = more potent) for AATCTCTTCGTTCTTGGCGTTC is at least -0.3.
class 0

Exam item: decide whether the reported sensor-assay potency score (higher = more potent) for TTCAGAATCTCTTCGTTCTTGG is at least -0.3.
class 1

Exam item: decide whether the reported sensor-assay potency score (higher = more potent) for TTCCAGGCAACATCGTTGCGAC is at least -0.3.
class 0

Exam item: decide whether the reported sensor-assay potency score (higher = more potent) for TTCATCTGGGTGTAGTCCCGGA is at least -0.3.
class 0

====

Biological target: PNPLA3
Experiment: pooled miR-30 sensor sort-seq; sequence = guide strand
Conditions: shRNA
Quick rule: sensor-assay potency score (higher = more potent) of at least -0.5 means Y, below that means N.

Would you please look over these solved cases?
chain-sequence | category
TTTGCAGAGACCCTGTCGGAGG | N
TATCGCACGCCTCTGAAGGAAG | N
TAAGACATTATCCTAATGGGTA | Y

Exam item: decide whether the reported sensor-assay potency score (higher = more potent) for ATTACATAAGACATTATCCTAA is at least -0.5.
N

Exam item: decide whether the reported sensor-assay potency score (higher = more potent) for TCTGCTTTGGTCTCTGCTGGAC is at least -0.5.
N

Exam item: decide whether the reported sensor-assay potency score (higher = more potent) for TAGCAAGTTGCAAATCTTGCTC is at least -0.5.
Y

====

Some sequences, each annotated with its measured sensor-assay potency score (higher = more potent).
Molecular target: PARP11
Assay: pooled miR-30 sensor sort-seq; sequence = guide strand
Settings: shRNA
// return a plain number; no unit text

# annotated cases, reported sensor-assay potency score (higher = more potent) shown
chain-sequence | target-of-assay | numeric-value
TTTAATTCGGTTGCGATCCATC | PARP11 | -0.893
TTTTTTCTTGAGCTGAGCCTTT | PARP11 | -0.428
TTTTTTTCTTGAGCTGAGCCTT | PARP11 | -0.839
TATAAATTCACATAGCTCCCGT | PARP11 | 0.0491
TTAATCTGAGGCACACCTCTTT | PARP11 | 0.16

The value of sensor-assay potency score (higher = more potent) measured for the sequence TTGCGATCCATCGTCTTCCCAA turned out to be -0.797

The value of sensor-assay potency score (higher = more potent) measured for the sequence TACTTGAGTATTCACATTCTCC turned out to be -0.755

====

Molecular target: OTP
Assay: pooled miR-30 sensor sort-seq; sequence = guide strand
Conditions: shRNA
Quick rule: sensor-assay potency score (higher = more potent) of at least -0.2 means Satisfied, below that means Not satisfied.

Would you please look over these solved cases?
chain-sequence | category
TTCTACACTCTCACACAGTTGT | Satisfied
TTAAGTTAAAACATATCACAAA | Not satisfied
TTTATCTACACAAAACATCCTA | Satisfied
TTTCTCTGTACAAAGTTGCAGG | Not satisfied

Kindly review the next sequence as well.
Exam item: decide whether the reported sensor-assay potency score (higher = more potent) for TGTCCCTTGAACACGTCCGTGT is at least -0.2.
Not satisfied

====

Biological target: FAM58A
Assay: pooled miR-30 sensor sort-seq; sequence = guide strand
Settings: shRNA
Quick rule: sensor-assay potency score (higher = more potent) of at least -0.8 means Fulfilled, below that means Not fulfilled.

Would you please look over these solved cases?
chain-sequence | category
TTGGACACATTGATGATGTCAC | Fulfilled
TATGGTAAATGGTGCAAGCAGT | Fulfilled
TTGAAGACATGGCAATCAGGTA | Fulfilled
TTGATGATGTCACGAGTCCGCA | Fulfilled
TCTCGCAAAAGAACTTATGGTA | Fulfilled
TTGGGTTAAAGTACCTGTTGGA | Fulfilled
TAGTGGAGCAGGTACTTGTGTG | Not fulfilled
TAGGGATTCAGTCTCATCGATT | Not fulfilled
TTGGTCTCGCAAAAGAACTTAT | Not fulfilled

Kindly review the next sequence as well.
Exam item: decide whether the reported sensor-assay potency score (higher = more potent) for ATCGATTTCATGACTTTCCTTT is at least -0.8.
Fulfilled

====

Some sequences, each annotated with its measured sensor-assay potency score (higher = more potent).
Molecular target: TULP4
Test: pooled miR-30 sensor sort-seq; sequence = guide strand
Conditions: shRNA
// return a plain number; no unit text

The value of sensor-assay potency score (higher = more potent) measured for the sequence TTGTAGAACTTGACCATGGCAC turned out to be 0.0563

The value of sensor-assay potency score (higher = more potent) measured for the sequence TTTCTGACTCTTCACTTTCTTC turned out to be -1.27

The value of sensor-assay potency score (higher = more potent) measured for the sequence TTCAAGCACACATCCACTGGGG turned out to be 0.492

The value of sensor-assay potency score (higher = more potent) measured for the sequence TTAAAGTCACTCAAAGTCCTAG turned out to be 0.213

The value of sensor-assay potency score (higher = more potent) measured for the sequence TTTTATAGATTACTGCACCGAG turned out to be 0.0761

====

Molecular target: C17orf89
Assay: pooled miR-30 sensor sort-seq; sequence = guide strand
Conditions: shRNA
measurement-type: sensor-assay potency score (higher = more potent)
// return a plain number; no unit text

chain-sequence | numeric-value
TCTTCTTGGCCGCAGCGGCGAA | -1.65
TCGCACGCGGCCCCACACCGCT | -1.58
TTCTTGGCCGCAGCGGCGAAGC | -1.54

The value of sensor-assay potency score (higher = more potent) measured for the sequence AAGTCCTTACTCAGGCGGCCGC turned out to be -1.52

The value of sensor-assay potency score (higher = more potent) measured for the sequence TCGAACTCCCGCGCGCAGAAGT turned out to be -1.83

====

Target: NEBL
Assay: pooled miR-30 sensor sort-seq; sequence = guide strand
Conditions: shRNA
Quick rule: sensor-assay potency score (higher = more potent) of at least -0.3 means YES, below that means NO.

Would you please look over these solved cases?
chain-sequence | target-of-assay | category
TAGATTTGGTGAATGCTGCATT | NEBL | YES
TACATGGCTCGGTAGGTCCTTA | NEBL | NO
TTGAATCTACATGACATGCAAC | NEBL | NO
TTTGTACTTGACCTGACTCTGC | NEBL | YES
TTCATGTTGAGTGCCATCTTGC | NEBL | NO
TTGTCTTAAAAGTATCTTCTAT | NEBL | YES

Kindly review the next sequence as well.
Exam item: decide whether the reported sensor-assay potency score (higher = more potent) for TTATTTGGTCCTGACATTCTGT is at least -0.3.
YES

====

Some sequences, each annotated with its measured sensor-assay potency score (higher = more potent).
Biological target: OSR1
Assay: pooled miR-30 sensor sort-seq; sequence = guide strand
Settings: shRNA

# annotated cases, reported sensor-assay potency score (higher = more potent) shown
chain-sequence | result
TAGGTTGTAGGACTTGGTGAAG | -1.09
TTGTAGGACTTGGTGAAGTGGC | -0.656
TTTCCCACACTCTTGACACTTG | -0.209
ATATCTGTGGTCTCGCAGGTGG | -0.964
AATATATCTGTGGTCTCGCAGG | -1.37

Kindly consider the entry below.
The value of sensor-assay potency score (higher = more potent) measured for the sequence TTCTTTTCTGGAGACAGCTTGG turned out to be -0.688
